- Assay Notes: Solubility of saturated solutions determined by HPLC
- Format: physicochemical
- Assay Setup: organic solvent or mixture, thermodynamic from solid; 1-Propanol, 50° C.; read-out: Solubility
Value Type: solubility
# output: numeric value plus its unit

Return the recorded solubility value; entry: CN(C)c1nc(Cc2ccc(NC(=O)c3ccc(C(F)(F)F)cc3)cc2)nc(N(C)C)c1CC(=O)O [Formula I] 2410 µg/mL

====

- Assay Notes: Solubility of saturated solutions determined by HPLC
- Format: physicochemical
- Assay Setup: organic solvent or mixture, thermodynamic from solid; Toluene, 50° C.; read-out: Solubility
Value Type: solubility (µg/mL)
Express the result in µg/mL but write the number alone.

Name the recorded solubility of the item CN(C)c1nc(Cc2ccc(NC(=O)c3ccc(C(F)(F)F)cc3)cc2)nc(N(C)C)c1CC(=O)O [Formula I] in your answer. 30

====

- Assay Notes: Solubility of saturated solutions determined by HPLC
- Format: physicochemical
- Assay Setup: organic solvent or mixture, thermodynamic from solid; Methanol, 50° C.; read-out: Solubility
Value Type: solubility

Please report the measured solubility for CN(C)c1nc(Cc2ccc(NC(=O)c3ccc(C(F)(F)F)cc3)cc2)nc(N(C)C)c1CC(=O)O 3040 µg/mL

====

- Assay Notes: Solubility of saturated solutions determined by HPLC
- Type: physicochemical
- Assay Setup: organic solvent or mixture, thermodynamic from solid; Isopropanol, 50° C.; read-out: Solubility
Value Type: solubility (µg/mL)
Number in µg/mL, nothing else.

Specify measured solubility for CN(C)c1nc(Cc2ccc(NC(=O)c3ccc(C(F)(F)F)cc3)cc2)nc(N(C)C)c1CC(=O)O [Formula I] . 1960
